Listing of recorded Comparative Example 5: proportion of reduced coenzyme Q10 by entry.
Assay: Reduction of oxidized coenzyme Q10 by amino acid in condensed ricinoleate (CR-310)/MCT, HPLC proportion of reduced coenzyme Q10
Conditions: 6 equivalents amino acid, condensed ricinoleate (CR-310) and MCT, 80° C., 16 hours, nitrogen atmosphere
READOUT TYPE: Comparative Example 5: proportion of reduced coenzyme Q10 (%)

COMPOUND | RESULT
CC(C)[C@H](N)C(=O)O [Valine] | 0
CC[C@H](C)[C@H](N)C(=O)O [Isoleucine] | 0
C[C@H](N)C(=O)O [Alanine] | 0
NCC(=O)O [Glycine] | 1
